As shown below, each of these binders has a reported FXa generation rate at 100 nM mAb value.
# test_system: human plasma-derived FIXa (Haematologic Technologies Inc) (human, UniProt P00740 47-191; P00740 227-461)
# Sequence (P00740 47-191, chain 1 of 2): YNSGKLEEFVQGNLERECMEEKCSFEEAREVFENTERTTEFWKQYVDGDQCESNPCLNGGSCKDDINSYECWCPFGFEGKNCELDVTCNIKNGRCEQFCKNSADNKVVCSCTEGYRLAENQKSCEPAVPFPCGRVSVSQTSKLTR
# Sequence (P00740 227-461, chain 2 of 2): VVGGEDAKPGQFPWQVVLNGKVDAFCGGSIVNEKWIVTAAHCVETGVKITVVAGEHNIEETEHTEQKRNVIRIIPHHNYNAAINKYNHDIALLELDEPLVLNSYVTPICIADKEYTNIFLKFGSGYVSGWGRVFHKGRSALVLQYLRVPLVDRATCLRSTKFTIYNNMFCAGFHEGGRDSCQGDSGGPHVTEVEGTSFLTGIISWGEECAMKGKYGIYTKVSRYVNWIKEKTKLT
# method_summary: cell-based or functional assay
Answer format: numeric, pM/min implied, no suffix.

>  <binder>
mAb1-4071 (antibody, V domains shown) VH: EVQLVQSGAEVKKPGESLRISCKGSGYSFTPYWIGWVRQMPGKGLEWMGMIDPSDSYTDYGPSFRGHVTISADKSISTAYLQWSSLKASDTAMYYCARVRIREGAFDIWGQGTMVTVSS VL: DIVMTQSPLSLPVTPGEPASISCRSSQRLLHSTGYNYLNWYLQKPGQSPQLLIYLGSRRASGVPDRFSGSGSGTDFTLKISRVEAEDVGVYYCMQALHIPYTFGQGTKLEIK

>  <observed_result>
198

$$$$
>  <binder>
mAb1-4763 (antibody, V domains shown) VH: EVQLVESGGGLVQPGRSLRLSCAASGFTFGDYAMHWVRQAPGKGLEWVSGISWNSGSIGYAKSVKGRFTISRDNAKNSLYLQMNSLRAEDTALYYCAKGQYDEDAGMDVWGQGTTVTVSS VL: DIQMTQSPSSLSASVGDRVTITCRASQWISSYLNWYQQKPGKAPKLLIYAASSLPSGVPSRFSGSGSGTDFTLTISSLQPEDFATYYCQQGYPTWTFGGGTKVEIK

>  <observed_result>
375

$$$$

Could you now consider this next binder?
Q. Return reported FXa generation rate at 100 nM mAb; argument: mAb1-4861 (antibody, V domains shown) VH: EVQLVESGGGLVQPGRSLKLSCAASGFTFDDYAMHWVRQVPGKGLEWVSGISWNGDNIGYVDSVKGRFTISRDNAKNSLYLQLNSLRAEDTALYYCVKSYGSGSFYNAFDSWGQGTLVTVSS VL: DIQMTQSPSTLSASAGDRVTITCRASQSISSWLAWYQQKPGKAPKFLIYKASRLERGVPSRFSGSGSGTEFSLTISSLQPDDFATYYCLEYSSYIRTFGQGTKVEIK
A. 364
